Entry source: ChEMBL document CHEMBL1773009

# measured.on: Neuropeptide Y receptor type 1 (Homo sapiens, UniProt P25929)
# Sequence (P25929 whole entry): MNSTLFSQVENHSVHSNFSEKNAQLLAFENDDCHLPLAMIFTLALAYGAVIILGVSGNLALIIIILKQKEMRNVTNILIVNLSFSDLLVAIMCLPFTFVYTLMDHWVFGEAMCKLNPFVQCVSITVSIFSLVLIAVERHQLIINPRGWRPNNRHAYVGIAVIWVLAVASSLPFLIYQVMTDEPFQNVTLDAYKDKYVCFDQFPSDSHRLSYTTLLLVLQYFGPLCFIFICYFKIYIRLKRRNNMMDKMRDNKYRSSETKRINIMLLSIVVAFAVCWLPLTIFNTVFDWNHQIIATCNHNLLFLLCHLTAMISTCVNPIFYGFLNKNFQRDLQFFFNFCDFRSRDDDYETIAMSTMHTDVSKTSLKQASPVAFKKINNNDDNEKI
# measurement.notes: Displacement of [3H]-UR-MK114 from Y1R in human SK-N-MC cells by radioligand competition binding
pKi: −log10 of the molar value.
observed.property: pKi

Cc1cc(/C=C/c2cc3c4c(c2)CCCN4CCC3)cc(C)[n+]1CCNC(=O)CCCC(=O)/N=C(/N)NCCC[C@@H](NC(=O)C(c1ccccc1)c1ccccc1)C(=O)NCc1ccc(O)cc1.O=C([O-])C(F)(F)F; 7.66
CN(C)c1ccc(/C=C/C=C/c2sc3ccccc3[n+]2CCCC(=O)NCCCCNC(=O)/N=C(/N)NCCC[C@@H](NC(=O)C(c2ccccc2)c2ccccc2)C(=O)NCc2ccc(O)cc2)cc1.O=C([O-])C(F)(F)F; 7.59
